System: PfAP2-EXP AP2 domain (GST-tagged)
Test: gcPBM binding intensity (ln(normalized median fluorescence intensity)); higher = stronger DNA binding
Over roughly 25,000 sequences, “ln(normalized median fluorescence intensity)” has its median near 8.6; the highest 2% begin near 10. This excerpt belongs to a sample that is enriched for the highest values.
// class assignment uses gcPBM binding intensity (ln) with these ranges: bucket 1 = under 9, bucket 2 = from 9 up to 10, bucket 3 = 10 and over

{"Monomer sequence": "ATTCTATATTTAAATGCATGCACTTTCTATTTTTTT [TGCATGCA_site435]", "Classification": "bucket 3"}
{"Monomer sequence": "CTTTTCTATTTTTTCGTGCACTATAAATATTTTAAT", "Classification": "bucket 2"}

Hello team, could you let me know which band the following sequence falls into: ATATATATAATAAGTGGTACAAGTTATTCATTAAAT [XGTACX_site7063] bucket 1

Hello team, could you let me know which band the following sequence falls into: ATATAATATATATATTGTACATATATTTATAAGCAT [XGTACX_site3726] bucket 1
